- Tested on: CAKI-1 renal
- method-summary: NCI-60 one-dose screen, 48 h (100 = growth as untreated, 0 = no growth, -100 = all killed)
- condition-parameters: 10 µM unless noted
This is part of a sample that, as a whole, favours compounds with a hit. Of some 83,000 tested, about 20% had one in any assay. Active and inactive are the calls of the source. Rule for the calls: active = growth percent below 10; inactive = the rest.
This section presents molecules with their documented growth values.

CCOC(=O)c1c(/N=C2\SC(=O)/C(=C\C(=O)OC)N2NC)sc2c1CCN(C(=O)OCC)C2 ... 103% (inactive)

Problem: Please give the measured growth for this molecule: O=C1NN(C(=O)c2ccc(Cl)cc2)C(c2ccccc2)=N/C1=C\c1cn(-c2ccccc2)nc1-c1ccccc1
Result: 80.4% (inactive)

Problem: Returns the measured growth for the input molecule. Input: O=C(Nc1ccc(Cl)c(Cl)c1)NS(=O)(=O)c1cnccc1Oc1ccc(F)cc1
Result: 5.6% (active)

Problem: Quick one: growth for O=C(Nc1ccncc1)C(=O)c1cn(S(=O)(=O)c2ccccc2F)c2ccccc12 ?
Result: 35.6% (inactive)

Problem: Would you kindly share the measured growth for Cc1[nH]c2ccc(F)cc2c1CCNC(=O)C1CCN(C(=O)c2ccccc2)C1 (stereo not given) ?
Result: 77.1% [25 µM] (inactive)

Problem: May I ask what growth has been recorded for C1=Cc2ccccc2N(c2nnc(-c3ccccc3)o2)c2ccccc21 ?
Result: 83.3% (inactive)

Problem: # growth lookup, item COc1cc(-c2nn(-c3cccc(NC(=O)c4ccccc4)c3)cc2-c2ccncc2)ccc1Cl
Result: 40.6% (inactive)

Problem: Which growth reading was recorded for the molecule CCCCN(CCCC)C(=O)CC ?
Result: 109% (inactive)

Problem: So what does the record say about growth for Cc1ccc2ccccc2c1C[n+]1ccccc1 ?
Result: 92.8% (inactive)

Problem: So what's the measured growth for this one? O=C1NC(=C(Cl)Cl)/C(=N/S(=O)(=O)N2CCC(C3(C(F)(F)F)N=N3)CC2)N1
Result: 74.5% (inactive)

Problem: Quick one: growth of O=C1Nc2ccc(Cl)cc2C12Nc1cc(Cl)ccc1S2 (stereo not given) ?
Result: 112% (inactive)

Problem: Fill blank: measured growth of the molecule Cn1c(=O)c2[nH]c(C3CC=CCC3)nc2n(C)c1=O (stereo not given) is ____.
Result: 118% (inactive)

Problem: Fill in: growth of Nc1nc(-c2ccccc2)c(CCCOc2ccc(NC(=O)CBr)cc2)c(=O)[nH]1 is ___
Result: 106% (inactive)

Problem: growth for CSc1nc2c(c(=O)[nH]1)C(c1ccc(C)cc1)C=C(C(=O)O)N2 (stereo not given) ?
Result: 88.6% (inactive)

Problem: Which measured growth value corresponds to COc1cc(C(=O)/C=C/c2c(C)n([O-])c3ccc(C(F)(F)F)cc3[n+]2=O)cc(OC)c1OC ?
Result: -11.9% (active)

Problem: Entry under review: O=C(NCc1cn(Cc2cccc(Oc3ccccc3)c2)nn1)c1cccnc1Nc1ccc(F)cc1 . Reported growth?
Result: 53.9% (inactive)

Problem: # get_value(readout='growth', item= C/C(=N/NC(=S)Nc1ccccc1)c1nc2ccc(Cl)cc2[nH]1 )
Result: 9.36% (active)

Problem: Entry CC(C)(C)c1[nH]nc2c1C(c1cc3ccccc3[nH]c1=O)Nc1cc(C(=O)Nc3ccc(Cl)cc3)ccc1N2 (stereo not given) has what growth?
Result: 94.9% (inactive)

Problem: What does the data say about its growth? Entry: CC(=O)OC[C@]12CC[C@H]3[C@@H](C[C@H]4O[C@]45CC=CC(=O)[C@]35C)[C@]1(O)CC[C@@]2(O)[C@@](C)(O)C1CC(C)=C(C)C(=O)O1 (stereo not given in full)
Result: -63.7% (active)

Problem: Fill blank: measured growth of the molecule CCCCC(CC)OC(=O)C(Br)CC (stereo not given) is ____.
Result: 99% (inactive)

====

- System: A498 renal
- method-summary: NCI-60 one-dose screen, 48 h (100 = growth as untreated, 0 = no growth, -100 = all killed)
- condition-parameters: 10 µM unless noted
The panel holds about 83,000 compounds, 20% with a hit somewhere; the sample as a whole holds those more often. Calls of active or inactive are those of the source. The calls were made as follows: active = growth percent below 10; inactive = the rest.
experimental-endpoint: growth

COc1cc(-c2nn(-c3cccc(NC(=O)c4ccccc4)c3)cc2-c2ccncc2)ccc1Cl ... -23.2% (active)

Problem: Fill blank: measured growth of the compound CCCCCCCCN(CCCCCCCC)CCCCCCNc1cc(OC)cc2cccnc12 is ____.
Result: 110% (inactive)

Problem: Please give the measured growth for this compound: COC(=O)c1nc(-c2ccccc2)oc1S(=O)(=O)N1CCN(c2cccc(Cl)c2)CC1
Result: 111% (inactive)

Problem: I would be grateful if you could share the reported growth for O=C(NCCNc1nccc(-n2ccc3cccnc32)n1)c1ccc(C(F)(F)F)cc1 .
Result: 108% (inactive)

====

- Test system: IGROV1 ovarian
- method-summary: NCI-60 one-dose screen, 48 h
- condition-parameters: 10 µM unless noted
This is part of a sample that, as a whole, favours compounds with a hit. Of some 83,000 tested, about 20% had one in any assay. The source made the active and inactive calls. Rule for the calls: active = growth percent below 10; inactive = the rest.
Outcome field: choose from True (active), False (inactive)

See these solved cases before continuing.
CCCCCCCCCCCCNC(=O)[C@H]1CSC(c2ccsc2)N1 (some centres undefined) ... True
COc1ccc(-c2[nH]nc(N)c2-c2cc(OC)c3c(c2)OCO3)cc1 ... False
CN1CCN(Cc2ccc(NC(=O)c3cncc(C#Cc4cnc(N)c5cnccc45)c3)cc2C(F)(F)F)CC1 ... True
C=C(C)[C@@H]1CC[C@]2(C(=O)N3CCNCC3)CC[C@]3(C)[C@H](CC[C@@H]4[C@@]5(C)C/C(=C/c6ccncc6)C(=O)C(C)(C)[C@@H]5CC[C@]43C)[C@@H]12 ... False

Problem: Assay outcome for O=C(Nc1ccc(NCCN2CCOCC2)nc1)c1ccc([N+](=O)[O-])cc1 : what was it?
Result: False

Problem: Dear all, I need the recorded test outcome for C=C1CCC2C3(C)COC(c4c(OC)cccc4OC)OC3CCC2(C)C1C/C=C1/C(=O)OCC1O (centres undefined) , thank you.
Result: False

Problem: Give the logged outcome of this assay for the following molecule: Fc1ccc(Nc2ncnc3ccc(-c4cnc5[nH]ccc5c4)cc23)cc1Cl
Result: True

Problem: What was the test verdict on Cc1ccc(S(=O)(=O)n2cc(C(=O)C(=O)Nc3ccncc3)c3ccccc32)cc1 ?
Result: False

Problem: Please state the recorded outcome for this molecule: N=c1ccc2nc3ccc(N)cc3sc-2c1
Result: False

Problem: Check the results log: what was the call for COc1ccc(/C=N\NC(=O)CN2CCN(c3cc4c(cc3F)c(=O)c(C(=O)N/N=C/c3ccc(OC)c(OC)c3)cn4C3CC3)CC2)cc1OC ?
Result: True

Problem: Lab log entry: CC(=O)Nc1ccc(S(=O)(=O)n2ccc(-c3ccc4c(c3)CCC(C)(C)O4)n2)cc1 — outcome as called in the assay?
Result: False

====

- Tested on: RXF 393 renal
- method-summary: NCI-60 one-dose screen, 48 h
- condition-parameters: 10 µM unless noted
The panel holds about 83,000 compounds, 20% with a hit somewhere; the sample as a whole holds those more often. The source made the active and inactive calls. The calls were made as follows: active = growth percent below 10; inactive = the rest.
Output constraint: value belongs to TRUE = active, FALSE = inactive

Cc1ccc(S(=O)(=O)Nc2c(Br)cc(Br)cc2C(N)=O)cc1 ... FALSE
N/C(=N\S(=O)(=O)c1ccccc1)Nc1nc2ccccc2s1 ... FALSE
Cc1ccc(S(=O)(=O)NCCNc2cc(-c3cn(C(C)(C)C)nc3-c3cccc(O)c3)ccn2)cc1 ... FALSE
COc1ccc(-c2nc3sc(-c4cc(OC)c(OC)c(OC)c4)nn3c2/C=C2/C(=O)Nc3ccc(F)cc32)cc1 ... TRUE
Brc1ccc(-c2[nH]ncc2-c2c[nH]c3ccccc23)cc1 ... FALSE
Cc1cc(N/N=C/c2nc(-c3ccccc3)oc2C)c2cc(Br)ccc2n1 ... FALSE

Problem: How was CC(=O)Oc1csc(N(C(C)=O)c2cc(C(=O)O)cc(C(=O)O)c2)n1 classified in this test?
Result: FALSE

Problem: Hello, I am checking results. What call was entered for O=C1c2c(c3c4ccccc4n(CCCCCCBr)c3c3[nH]c4ccccc4c23)C(=O)N1O ?
Result: FALSE

Problem: What was the test verdict on Cc1csc(NC(c2ccccc2)c2c(C)nc3ccccn23)n1 (stereo unspecified) ?
Result: FALSE

Problem: Hi, sorry to bother you, what did the test record for COc1ccc2c(c1)OC1=C(C(=O)OC1)C2c1cc(OC)c2c(c1)OCO2 (stereo unspecified) ?
Result: FALSE

Problem: Entry COc1cc(Nc2ncccc2C(=O)NCc2cn(Cc3cccc(Oc4ccccc4)c3)nn2)cc(OC)c1 : call = ?
Result: FALSE

Problem: Please share the test call associated with COc1ccc(C(=O)n2nc(/C=C/c3ccc(O)c(OC)c3)cc2/C=C/c2ccc(O)c(OC)c2)cc1 .
Result: TRUE

Problem: Could you please tell me the result logged for CC[N+](CC)=c1cc2oc3cc(N(C)C)ccc3nc-2cc1C in this assay?
Result: FALSE

Problem: Returns: the outcome recorded for Brc1cccc(-c2cc(-c3ccc4nccnc4c3)[nH]n2)c1 in this assay.
Result: TRUE

Problem: Called result for Brc1cccc(-c2cc(-c3ccc4c(c3)OCCCO4)[nH]n2)c1
Result: FALSE

Problem: Outcome logged for Fc1ccccc1-c1nc(-c2nc3cc(Cl)c(Cl)cc3[nH]2)c2ccccn12 in this assay:
Result: FALSE

Problem: Call for entry COc1ccc(Nc2ncccc2C(=O)NCc2cn(Cc3cccc(Oc4ccccc4)c3)nn2)cc1 :
Result: FALSE

Problem: // outcome(item) with item = COc1cc(/C=N\NC(=O)CN2CCN(c3cc4c(cc3F)c(=O)c(C(=O)N/N=C/c3cc(OC)c(OC)c(OC)c3)cn4C3CC3)CC2)cc(OC)c1OC
Result: TRUE

Problem: Entry O=C(Nc1ccncc1)C(=O)c1cn(S(=O)(=O)c2ccc(Oc3ccccc3)cc2)c2ccccc12 : call = ?
Result: FALSE

Problem: Answer briefly: the call reported for COc1ccc(OC)c(/C=C2\Oc3cc(OCCCN4CCCC4)ccc3C2=O)c1 in this assay.
Result: FALSE

Problem: Hi, do you know how CC(=O)Nc1nc(N)nc(NC(C)=O)c1N=O came out in this test?
Result: FALSE

Problem: How was Cn1c(=O)cc(NC(=O)CN2CCN(c3cc4c(cc3F)c(=O)c(C(=O)O)cn4C3CC3)CC2)[nH]c1=O classified in this test?
Result: FALSE

Problem: Would you mind telling me which call this test gave CCn1c2ccccc2c2cc(NC(=O)Nc3ccc([N+](=O)[O-])cc3C)ccc21 ?
Result: TRUE

Problem: What is the recorded call for this compound in the test? COc1ccc(C2C=C(c3ccc(N)cc3)N=C3SC=CN32)cc1OC (stereo unspecified)
Result: FALSE

Problem: Identify the outcome logged in this assay for the compound shown: COc1ccc(-c2cn(-c3cccc(C(=O)/C=C/c4cc(OC)c(OC)c(OC)c4)c3)c(=O)[nH]2)cc1OC
Result: FALSE

Problem: Any idea what this test logged for CC(C)OC(=O)N1CCOCC1 ?
Result: FALSE

Problem: Hello, I am checking results. What call was entered for O=C(Nc1cccc(-n2cc(-c3ccncc3)c(-c3ccc(Cl)c(O)c3)n2)c1)c1ccc(N2CCOCC2)c(C(F)(F)F)c1 ?
Result: TRUE

Problem: I would be grateful if you could indicate the recorded call for CCOC(=O)NNC(=S)Nc1ccccc1 .
Result: FALSE

Problem: Outcome? O=C(Nc1ccc2c(c1)OCO2)C(=O)c1c[nH]c2cc(F)ccc12
Result: FALSE

Problem: Hi, do you know how Cc1csc(NC(c2ccc(Br)cc2)c2c(C)nc3ccccn23)n1 (stereo unspecified) came out in this test?
Result: FALSE
